# measured-on: human V2 receptor (Homo sapiens, UniProt P30518)
# Construct: expressed in transfected cells; host or cells: CHO K1 (ATCC) expressing firefly luciferase under a CRE-responsive promoter
# Sequence (P30518 whole entry): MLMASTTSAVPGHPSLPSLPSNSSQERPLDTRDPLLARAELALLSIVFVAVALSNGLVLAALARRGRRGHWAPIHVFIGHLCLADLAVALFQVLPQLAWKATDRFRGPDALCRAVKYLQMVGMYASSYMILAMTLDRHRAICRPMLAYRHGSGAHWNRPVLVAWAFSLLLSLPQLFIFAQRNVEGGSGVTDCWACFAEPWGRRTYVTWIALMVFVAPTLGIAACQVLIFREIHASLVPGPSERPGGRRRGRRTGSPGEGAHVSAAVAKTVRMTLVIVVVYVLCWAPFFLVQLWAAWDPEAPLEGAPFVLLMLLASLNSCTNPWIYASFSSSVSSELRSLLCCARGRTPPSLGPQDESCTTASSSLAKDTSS
# assay-method-text: Cellular in vitro assay for vasopressin receptor activity, V2 receptor cell line (CRE-luciferase)
# Format: cell-based
# assay-context: Table 1A; CHO cell line transfected with human V2 receptor; [Arg8]-vasopressin at EC50; read-out: IC50 hV2
pIC50: −log10 of the molar value.
measured-endpoint: pIC50

Prompt: For the molecule NC(=O)c1nc(Cn2nc(-c3ccc(Cl)cc3)n(C[C@@H](O)C(F)(F)F)c2=O)nn1-c1ccccc1OC(F)(F)F , report pIC50.
Response: 6.18

P = CCOc1ccccc1-n1nc(Cn2nc(-c3ccc(Cl)cc3)n(C[C@@H](O)C(F)(F)F)c2=O)nc1C(N)=O
Q = NC(=O)c1nc(Cn2nc(-c3ccc(Cl)cc3)n(C[C@H](O)C(F)(F)F)c2=O)nn1-c1ccccc1OC(F)(F)F
Prompt: Param pair: P , Q . Output: the one whose pIC50 is numerically greater. Please respond with the label that marks your chosen entry.
Response: Q
(Q: 7.12, P: 6.05)

----------
# measured-on: human V1a receptor (Homo sapiens)
# Sequence (P37288 whole entry): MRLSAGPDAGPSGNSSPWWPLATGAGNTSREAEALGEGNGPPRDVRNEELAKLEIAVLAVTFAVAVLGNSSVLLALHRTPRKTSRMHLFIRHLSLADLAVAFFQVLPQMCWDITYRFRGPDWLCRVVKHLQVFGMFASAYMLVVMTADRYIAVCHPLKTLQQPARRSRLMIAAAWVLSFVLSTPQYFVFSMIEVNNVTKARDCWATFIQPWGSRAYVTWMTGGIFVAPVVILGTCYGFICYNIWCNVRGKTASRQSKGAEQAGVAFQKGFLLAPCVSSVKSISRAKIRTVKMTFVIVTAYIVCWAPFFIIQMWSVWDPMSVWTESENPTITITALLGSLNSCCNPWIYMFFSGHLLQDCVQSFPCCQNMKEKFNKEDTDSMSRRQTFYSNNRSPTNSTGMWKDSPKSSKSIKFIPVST
# assay-method-text: Cellular in vitro assay for vasopressin receptor activity, V1a receptor cell line (aequorin luminescence)
# assay-context: Table 1A; CHO cell line transfected with human V1a receptor; [Arg8]-vasopressin at EC50; read-out: IC50 hV1a
measured-endpoint: IC50 (nM)

Prompt: Tell me its IC50 given NC(=O)c1nc(Cn2nc(-c3ccc(Cl)cc3)n(C[C@@H](O)C(F)(F)F)c2=O)nn1-c1ccccc1OC(F)(F)F [Example 4] as the entry.
Response: 9.65

A = NC(=O)c1nc(Cn2nc(-c3ccc(Cl)cc3)n(C[C@H](O)C(F)(F)F)c2=O)nn1-c1ccccc1C(F)(F)F [Example 1]
B = CNC(=O)c1ccccc1-n1nc(Cn2nc(-c3ccc(Cl)cc3)n(C[C@H](O)C(F)(F)F)c2=O)nc1C(N)=O [Example 6]
Prompt: Which value of IC50 is smaller, the one for A or the one for B ? // caller expects the label of the chosen entry
Response: A
(A: 0.58 nM, B: 12.9 nM)
